- target: T1, Ala mutant of TA0096, SEQ ID NO: 32
- T1 peptide: EENMDAQWMQDEMEIGY
- method: ELISA, coated peptide
measurement.name: OD 490/630 nm
One number for each entry.

// known answers, use as guide
INSERT INTO results (binder, value_measured) VALUES
  ('H7 (antibody, V domains shown, Chicken variable regions in a mouse chimeric antibody (IgG1); also called anti-PAD4 antibody H7) VH: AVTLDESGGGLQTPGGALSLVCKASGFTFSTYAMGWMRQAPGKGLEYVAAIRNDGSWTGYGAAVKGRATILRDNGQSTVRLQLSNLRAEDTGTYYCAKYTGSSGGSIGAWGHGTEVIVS VL: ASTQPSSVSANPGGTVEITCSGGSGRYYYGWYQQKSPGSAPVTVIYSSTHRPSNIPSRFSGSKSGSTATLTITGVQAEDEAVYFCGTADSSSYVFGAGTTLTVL', 0.033),
  ('G8 (antibody, V domains shown, Chicken variable regions in a mouse chimeric antibody (IgG1); also called anti-PAD4 antibody G8) VH: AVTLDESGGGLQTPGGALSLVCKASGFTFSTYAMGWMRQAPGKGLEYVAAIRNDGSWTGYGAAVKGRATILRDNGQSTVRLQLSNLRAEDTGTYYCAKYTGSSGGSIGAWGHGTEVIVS VL: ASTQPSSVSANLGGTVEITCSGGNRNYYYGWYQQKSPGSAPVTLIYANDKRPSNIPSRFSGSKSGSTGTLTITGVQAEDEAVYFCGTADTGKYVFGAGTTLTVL', 0.083);

Input line: // lookup OD 490/630 nm for G6 (antibody, V domains shown, Chicken variable regions in a mouse chimeric antibody (IgG1); also called anti-PAD4 antibody G6) VH: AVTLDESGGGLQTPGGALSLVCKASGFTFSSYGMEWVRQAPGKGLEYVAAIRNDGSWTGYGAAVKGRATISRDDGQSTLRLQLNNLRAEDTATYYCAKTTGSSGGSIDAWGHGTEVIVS VL: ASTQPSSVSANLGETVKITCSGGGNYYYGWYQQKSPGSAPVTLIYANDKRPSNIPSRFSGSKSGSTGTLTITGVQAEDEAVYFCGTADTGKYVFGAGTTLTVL
Output line: 0.035

These entries and their values trace back to patent US20180044434A1.
